test system: ncRNAs (SEQ ID NO 28-89); experiment: ncRNA arrays of melanocytes, keratinocytes, normal skin, melanoma cell lines and patient samples; design: species or system human; conditions: melanoma patient 26 sample compared to normal skin
Label 1.0 for high-side ncRNA array expression, patient 26 (at or above -1) and 0.0 for low-side ncRNA array expression, patient 26 (below it).

* SEQ ID NO 79 (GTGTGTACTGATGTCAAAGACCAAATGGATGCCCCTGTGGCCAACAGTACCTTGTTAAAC; listed as DNA, chemistry not given here; listed as Homo sapiens) | 1.0
* SEQ ID NO 70 (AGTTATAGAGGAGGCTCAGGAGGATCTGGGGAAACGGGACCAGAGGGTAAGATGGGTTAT; listed as DNA, chemistry not given here; listed as Homo sapiens) | 0.0
* SEQ ID NO 64 (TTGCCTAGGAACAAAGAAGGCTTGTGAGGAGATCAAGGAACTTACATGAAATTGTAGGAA; listed as DNA, chemistry not given here; listed as Homo sapiens) | 1.0
* SEQ ID NO 58 (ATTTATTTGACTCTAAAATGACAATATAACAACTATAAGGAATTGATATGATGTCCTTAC; listed as DNA, chemistry not given here; listed as Homo sapiens) | 0.0
* SEQ ID NO 38 (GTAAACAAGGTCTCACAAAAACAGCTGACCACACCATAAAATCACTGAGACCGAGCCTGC; listed as DNA, chemistry not given here; listed as Homo sapiens) | 0.0
* SEQ ID NO 67 (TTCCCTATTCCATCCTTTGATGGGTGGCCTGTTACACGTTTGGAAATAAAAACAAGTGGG; listed as DNA, chemistry not given here; listed as Homo sapiens) | 1.0
* SEQ ID NO 61 (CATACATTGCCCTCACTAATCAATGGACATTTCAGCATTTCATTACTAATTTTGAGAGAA; listed as DNA, chemistry not given here; listed as Homo sapiens) | 1.0
* SEQ ID NO 87 (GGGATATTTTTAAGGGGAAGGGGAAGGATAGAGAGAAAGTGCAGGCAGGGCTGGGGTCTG; listed as DNA, chemistry not given here; listed as Homo sapiens) | 0.0
* SEQ ID NO 33 (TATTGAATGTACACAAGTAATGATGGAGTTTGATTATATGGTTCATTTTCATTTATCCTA; DNA, backbone and methylation of C not given here; listed as Homo sapiens) | 1.0

---

Recorded measurements of ncRNA array expression, patient 2, one per entry
tested on: ncRNAs (SEQ ID NO 28-89); experiment: ncRNA arrays of melanocytes, keratinocytes, normal skin, melanoma cell lines and patient samples; parameters: species or system human; details: melanoma patient 2 sample compared to normal skin
measurement-kind: ncRNA array expression, patient 2

- SEQ ID NO 68 (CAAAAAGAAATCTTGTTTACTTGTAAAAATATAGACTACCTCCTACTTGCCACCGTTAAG; listed as DNA, chemistry not given here; listed as Homo sapiens): −1.029
- SEQ ID NO 76 (TGTTTCTAATGCATACTGTGAAAGGAAAAAAAATCACAGTTATCCACCTTCTCAGGGCCT; listed as DNA, chemistry not given here; listed as Homo sapiens): −1.682
- SEQ ID NO 77 (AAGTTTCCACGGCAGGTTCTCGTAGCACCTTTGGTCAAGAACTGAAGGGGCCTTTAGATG; listed as DNA, chemistry not given here; listed as Homo sapiens): −2.141
- SEQ ID NO 74 (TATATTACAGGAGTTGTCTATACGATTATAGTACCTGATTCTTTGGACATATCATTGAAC; listed as DNA, chemistry not given here; listed as Homo sapiens): 2.155
- SEQ ID NO 28 (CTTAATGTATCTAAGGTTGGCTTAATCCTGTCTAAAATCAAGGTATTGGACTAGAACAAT; DNA, backbone and methylation of C not given here; listed as Homo sapiens): 2.064
- SEQ ID NO 52 (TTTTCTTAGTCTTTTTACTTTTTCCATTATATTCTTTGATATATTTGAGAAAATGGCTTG; listed as DNA, chemistry not given here; listed as Homo sapiens): 2.853
- SEQ ID NO 84 (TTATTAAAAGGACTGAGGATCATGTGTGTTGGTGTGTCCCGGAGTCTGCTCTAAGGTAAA; listed as DNA, chemistry not given here; listed as Homo sapiens): 1.997
- SEQ ID NO 58 (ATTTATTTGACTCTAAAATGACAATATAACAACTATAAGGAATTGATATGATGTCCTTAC; listed as DNA, chemistry not given here; listed as Homo sapiens): −1.675
- SEQ ID NO 37 (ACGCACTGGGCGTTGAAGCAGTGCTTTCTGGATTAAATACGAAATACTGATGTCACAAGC; DNA, backbone and methylation of C not given here; listed as Homo sapiens): 1.589

---

system: ncRNAs (SEQ ID NO 28-89); experiment: ncRNA arrays of melanocytes, keratinocytes, normal skin, melanoma cell lines and patient samples; set-up: species or system human; details: melanoma patient 25 sample compared to normal skin
ncRNA array expression, patient 25 values, listed per item
measurement-kind: ncRNA array expression, patient 25

- SEQ ID NO 45 (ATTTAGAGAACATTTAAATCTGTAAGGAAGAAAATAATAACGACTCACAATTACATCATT; listed as DNA, chemistry not given here; listed as Homo sapiens): −2.096
- SEQ ID NO 41 (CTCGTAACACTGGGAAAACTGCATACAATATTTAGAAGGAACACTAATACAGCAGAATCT; listed as DNA, chemistry not given here; listed as Homo sapiens): −2.4383
- SEQ ID NO 37 (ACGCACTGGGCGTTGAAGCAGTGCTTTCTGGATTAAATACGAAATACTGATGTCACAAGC; DNA, backbone and methylation of C not given here; listed as Homo sapiens): 3.471
- SEQ ID NO 82 (GAAGTCAGAAACTAAAGTTCCCTTCTAAGACAAAATCCTGCTTTGGAGAAAAAAAAAAAT; listed as DNA, chemistry not given here; listed as Homo sapiens): −3.428
- SEQ ID NO 75 (CAAGTGGGAAGAAAAAGAGCCCTACGTGGTGACATTCTGGAAGGATATCATGGATGATTG; listed as DNA, chemistry not given here; listed as Homo sapiens): −0.3024
- SEQ ID NO 36 (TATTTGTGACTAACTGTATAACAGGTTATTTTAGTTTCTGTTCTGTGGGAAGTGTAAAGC; listed as DNA, chemistry not given here; listed as Homo sapiens): 5.084
- SEQ ID NO 65 (CACCGTTTTACTTTTTGTGGGGAGGGGAAGCAGTATCAAAATTTCTTCGGGCGCCAGAAC; listed as DNA, chemistry not given here; listed as Homo sapiens): −1.384
- SEQ ID NO 68 (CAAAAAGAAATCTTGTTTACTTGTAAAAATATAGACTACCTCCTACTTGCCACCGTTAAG; listed as DNA, chemistry not given here; listed as Homo sapiens): −1.607
- SEQ ID NO 60 (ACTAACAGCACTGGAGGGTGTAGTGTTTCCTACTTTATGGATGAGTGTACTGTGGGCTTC; listed as DNA, chemistry not given here; listed as Homo sapiens): 1.226
- SEQ ID NO 53 (ATATATTTAGATAGTACTATGTTTCGTTTTCTTCCGATTTCAGGGATCCTTTTGTCTTAC; listed as DNA, chemistry not given here; listed as Homo sapiens): −2.864

---

tested on: ncRNAs (SEQ ID NO 28-89); assay: ncRNA arrays of melanocytes, keratinocytes, normal skin, melanoma cell lines and patient samples; set-up: species or system human; conditions: melanoma patient 30 sample compared to normal skin
# strict inequality: ncRNA array expression, patient 30 < 0.03 yields met, everything else yields not met

• SEQ ID NO 38 (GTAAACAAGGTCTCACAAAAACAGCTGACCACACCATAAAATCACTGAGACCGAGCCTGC; listed as DNA, chemistry not given here; listed as Homo sapiens) = not met
• SEQ ID NO 34 (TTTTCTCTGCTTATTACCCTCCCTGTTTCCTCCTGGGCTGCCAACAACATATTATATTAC; listed as DNA, chemistry not given here; listed as Homo sapiens) = met
• SEQ ID NO 42 (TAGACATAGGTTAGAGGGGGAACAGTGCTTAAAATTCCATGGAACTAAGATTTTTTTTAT; listed as DNA, chemistry not given here; listed as Homo sapiens) = not met
• SEQ ID NO 58 (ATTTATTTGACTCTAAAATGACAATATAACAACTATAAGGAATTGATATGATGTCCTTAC; listed as DNA, chemistry not given here; listed as Homo sapiens) = met

---

tested on: ncRNAs (SEQ ID NO 28-89); assay: ncRNA arrays of melanocytes, keratinocytes, normal skin, melanoma cell lines and patient samples; parameters: species or system human; settings: melanoma patient 27 sample compared to normal skin
Use yes when the recorded ncRNA array expression, patient 27 is no lower than -2; use no when it is lower.

• SEQ ID NO 30 (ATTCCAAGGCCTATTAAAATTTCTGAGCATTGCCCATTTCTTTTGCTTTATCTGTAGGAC; DNA, backbone and methylation of C not given here; listed as Homo sapiens) = yes
• SEQ ID NO 58 (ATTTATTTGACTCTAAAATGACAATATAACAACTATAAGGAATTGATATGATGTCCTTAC; listed as DNA, chemistry not given here; listed as Homo sapiens) = yes
• SEQ ID NO 39 (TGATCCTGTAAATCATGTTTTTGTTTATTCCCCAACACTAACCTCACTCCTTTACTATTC; listed as DNA, chemistry not given here; listed as Homo sapiens) = yes
• SEQ ID NO 53 (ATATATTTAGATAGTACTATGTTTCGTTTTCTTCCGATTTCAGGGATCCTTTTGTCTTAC; listed as DNA, chemistry not given here; listed as Homo sapiens) = no
